- Test system: MALME-3M melanoma
- Test Name: NCI tumour cell line growth inhibition, 48 h
# Lookup of reported TGI keyed by entry

Cc1ccc(C2=NO[C@@H]3C(=O)N(c4ccc(Cc5ccc(N6C(=O)[C@H]7C(c8ccc(C)cc8)=NO[C@H]7C6=O)cc5)cc4)C(=O)[C@H]23)cc1; > 100 µM
CN(CCC(=O)O)S(=O)(=O)c1ccccc1; > 100 µM
COc1ccc(-c2cc(-c3ccco3)c(C#N)c(=S)n2C2OC(CO)C(O)C(O)C2O)cc1 (stereo not given); > 100 µM
O=c1c2c3c(sc2nc2n1N=CN(c1ccc(Cl)cc1)C2)CCCC3; 97.9 µM

Form field: reported TGI of `CCCCc1ccc(N2C(=O)c3cccnc3S2(=O)=O)cc1`
> 100 µM

Next entry: `COC(=O)c1c2c(c(C)[n+]([O-])c1C)C(=O)C(NCc1ccc(F)c(F)c1)=CC2=O`
0.874 µM

Next entry: `Cc1n[nH]c(=O)n1/N=C/c1cccnc1`
> 100 µM

Next entry: `Nc1nccc(Nc2ccc(S(N)(=O)=O)cc2)n1`
> 100 µM

Next entry: `COC(=O)Nc1nc2ccc(Oc3ccc(NC(=O)Nc4cccc(Cl)c4)cc3)cc2[nH]1`
7.95 µM

Next entry: COc1ccc(NC(C)=O)cc1N1C(=O)/C(=C\c2cc(OC)c(OC)c(OC)c2)S(=O)(=O)C1c1ccccc1 (stereo not given)
> 100 µM

###

- Tested on: HT29 colon
- Test Name: NCI tumour cell line growth inhibition, 48 h
# Lookup of reported TGI keyed by entry

Below: 4 compounds and their reported TGI.
CC1(C)N=C(N)N=C(N)N1c1cccc(OCc2cccc([N+](=O)[O-])c2)c1; > 100 µM
COc1cc(-c2c(C)c(C)nc(OC)c2C#N)cc(OC)c1OC; > 100 µM
O=C(CCCN1CC=C(n2c(=O)[nH]c3ccccc32)CC1)c1cccs1; > 100 µM
CCOn1cc(C2=C(c3c[nH]c4ccccc34)C(=O)NC2=O)c2ccccc21; 12.8 µM

Now let's try a different one.
State its TGI on HT29 colon: `COc1cc(-c2nc3ccccc3s2)ccc1OCc1nc2n(n1)S(=O)(=O)c1ccccc1N2C`
> 100 µM

###

- Test system: UACC-62 melanoma
- Test Name: NCI tumour cell line growth inhibition, 48 h
# Lookup of reported GI50 keyed by entry

Form field: reported GI50 of `COC(=O)c1c2c(c(C)[n+]([O-])c1C)C(=O)C(NCc1ccc(F)c(F)c1)=CC2=O`
1530 nM

Next entry: `Cc1ccc(S(=O)(=O)n2cc(C(=O)C(=O)Nc3ccncc3)c3ccccc32)cc1`
829 nM

Next entry: `O=C1/C(=C/C(Cl)=C/c2ccccc2)SC(=S)N1CCc1ccc(O)cc1`
1330 nM

Next entry: `Cn1cnc2c(NCc3ccccc3)nc(NCCO)nc21`
67500 nM

###

- Tested on: HL-60(TB) leukemia
- Test Name: NCI tumour cell line growth inhibition, 48 h
Parameter Measured: TGI

Below: 5 compounds and their reported TGI.
Cc1cc(C)n(-c2c(O)ccc(O)c2-n2nc(C)cc2C)n1; > 100 µM
CNC(=O)CN(CC(N)=O)C(=O)NC; > 100 µM
Nc1nccc(Nc2ccc(S(N)(=O)=O)cc2)n1; > 100 µM
NC(=O)c1cc(C2OC(CO)C(O)C2O)nn1-c1ccc([N+](=O)[O-])cc1 (stereo not given); > 100 µM
CCOC(=O)c1cc2ncccc2c2ccccc12; > 100 µM

Now let's try a different one.
State its TGI on HL-60(TB) leukemia: `Cc1ccc(S(=O)(=O)n2cc(C(=O)C(=O)Nc3ccncc3)c3ccccc32)cc1`
3.66 µM

###

- System: CCRF-CEM leukemia
- Test Name: NCI tumour cell line growth inhibition, 48 h
Parameter Measured: TGI (µM)
Express the result in µM but write the number alone.

C[C@]12CCC(=O)C=C1CC[C@@H]1[C@@H]2CC[C@]2(C)C(=O)/C(=C/c3cccc(OCCN4CCOCC4)c3)C[C@@H]12; 28.6

Now let's try a different one.
Form field: reported TGI of `Clc1ccc2nc(CCSCCc3nc4ccc(Cl)cc4[nH]3)[nH]c2c1`
41.6

###

- Tested on: OVCAR-3 ovarian
- Test Name: NCI tumour cell line growth inhibition, 48 h
Parameter Measured: TGI

Below: 6 molecules and their reported TGI.
C=C(Cl)C(Br)(CBr)CCC(Br)C(C)(C)Br (stereo not drawn); > 10 µM
CC1(C)N=C(N)N=C(N)N1c1cccc(OCc2cccc([N+](=O)[O-])c2)c1; > 73.9 µM
O=C(/C=C\c1ccccc1-c1ccccc1)c1ccccc1; > 100 µM
Cc1nc2ccc(N=NN(C)C)cc2[nH]1; > 100 µM
COc1cc(/C=N/NC2=NCCCN2)ccc1O; > 100 µM
CCCCCCCCCC(=O)OCC1OC(n2cc(F)c(=O)[nH]c2=O)C(N)C(OC(=O)CCCCCCCCC)C1O (stereo not drawn); 32.7 µM

Form field: reported TGI of `C/C(=C\c1ccn(-c2ccc(N)cc2)n1)[C@@H]1C[C@@H]2O[C@]2(C)CCC[C@H](C)[C@H](O)[C@@H](C)C(=O)C(C)(C)[C@@H](O)CC(=O)O1`
1.6 µM

Next entry: CC(Oc1ccc(Cl)cc1Cl)C(=O)NN1C(=O)CSC1c1ccc(Cl)cc1 (stereo not drawn)
> 100 µM

Next entry: `CCC(=C(c1ccc(OCc2ccccc2)cc1)c1ccc(OCc2ccccc2)cc1)c1ccc(OC)cc1`
> 100 µM

Next entry: `Cc1cc2nc3c(C#N)c(-c4ccccc4)cc(Nc4ccc(F)cc4)n3c2cc1C`
46.4 µM

###

- Test system: 786-0 renal
- Test Name: NCI tumour cell line growth inhibition, 48 h
# Lookup of reported TGI keyed by entry

O=C(/C=C/c1ccccc1)CCC1C(=O)NC(=O)NC1=O; > 100 µM
COc1ccc(NC(C)=O)cc1N1C(=O)/C(=C\c2cc(OC)c(OC)c(OC)c2)S(=O)(=O)C1c1ccccc1 (configuration not stated); > 100 µM
O=C(O)c1cccc(CC(Br)C(=O)O)c1 (configuration not stated); > 100 µM

Form field: reported TGI of `CN(CCO)c1nc2c(c(=O)[nH]1)CNCC2`
> 100 µM

Next entry: `COC(=O)[C@@H](C)C[C@H](Cc1ccccc1)NC(=O)c1csc([C@@H](C[C@H](C(C)C)N(C)C(=O)[C@@H](NC(=O)[C@H]2CCCCN2C)C(C)C)OC(C)=O)n1`
24.5 µM

Next entry: Nc1ccc(C(=O)NN2C(=O)C(Cl)C2c2ccccc2O)cc1 (configuration not stated)
> 100 µM

Next entry: `Nc1nccc(Nc2ccc(S(N)(=O)=O)cc2)n1`
> 100 µM

Next entry: O=S1c2ccc(Cl)cc2CC(SSC2Cc3cc(Cl)ccc3S(=O)c3ccccc32)c2ccccc21 (configuration not stated)
> 100 µM

Next entry: `COC(=O)/C=C(\S/C(=C(/c1ccc(OC)cc1)n1cc(C(=O)OC)c(C(=O)OC)n1)c1ccc(OC)cc1)C(=O)OC`
26.9 µM

Next entry: `CCC[CH2][Sn]([CH2]CCC)([S]C1=NCCS1)[S]C1=NCCS1`
0.663 µM

Next entry: N=C(N)C1CN(CC=O)C(=O)NC1=O (configuration not stated)
> 100 µM

Next entry: `CC1(C)OC(=O)CC12CCN(Cc1ccccc1)CC2`
> 100 µM

Next entry: Cc1c(Cl)ccc2c1NC(=O)C2(O)C1Cc2ccccc2C1=O (configuration not stated)
> 100 µM

Next entry: CC(Oc1ccc(Cl)cc1Cl)C(=O)NN1C(=O)CSC1c1ccc(Cl)cc1 (configuration not stated)
> 100 µM

Next entry: `O=C1OC2(c3ccc(O)cc3Oc3cc(O)ccc32)c2c1c(-c1ccccc1)c(-c1ccccc1)c(-c1ccccc1)c2-c1ccccc1`
75.6 µM

Next entry: CNC1C(O)CC(OC2C/C=C(\C)C/C(C)=C/C=C/CCC(C)CNC(=O)/C=C/C=C/C2C)OC1C (configuration not stated)
0.294 µM

Next entry: `CC1=[N+]([O-])C(C)(C)N(O)C1(C)C`
> 100 µM

###

- Tested on: M14 melanoma
- Test Name: NCI tumour cell line growth inhibition, 48 h
Parameter Measured: TGI

Below: 2 compounds and their reported TGI.
COc1cc(/C=C2\N=C(c3ccccc3)N(/N=C/c3cc4cc(C)ccc4nc3Cl)C2=O)cc(OC)c1OC; > 100 µM
O=C(Nc1ccccc1)C(=O)C(C(=O)c1ccccc1)C(c1ccccc1)c1ccccc1 (stereo not drawn); > 10 µM

Now let's try a different one.
Form field: reported TGI of `O=C(/C=C\c1ccccc1-c1ccccc1)c1ccccc1`
> 100 µM

###

- System: A549 NSCLC
- Test Name: NCI tumour cell line growth inhibition, 48 h
Parameter Measured: TGI

Below: 3 compounds and their reported TGI.
CCN(CC)CCOc1cc2c(C(=O)OC)c(C)oc2cc1C(C)=O; 38.4 µM
Cc1ccc(S(=O)(=O)n2cnc(CC(NC(=O)C3CCC(=O)N3C(=O)OCc3ccccc3)C(=O)N3CCCC3C(=O)NN)c2)cc1 (centres undefined); > 100 µM
Cc1c(Cl)ccc2c1NC(=O)C2(O)C1Cc2ccccc2C1=O (centres undefined); > 100 µM

Now let's try a different one.
Form field: reported TGI of `Cc1ccnc2nc3[nH]c4ccccc4c3cc12`
> 100 µM
